The origin of these recorded values is patent US20160045505A1.

Test system: Trypanosoma cruzi amastigotes (Tulahuen strain expressing Lac-Z) cultured in 3T3 fibroblast cells
ASSAY PROCEDURE: microbe, parasite or virus in culture
Assay type: cell-based
CONDITION PARAMETERS: Trypanosoma cruzi, TULAHUEN, Fibroblast, T. cruzi amastigotes in 3T3 fibroblast cells; read-out: T cruzi EC50
pEC50: −log10 of the molar value.
// FALSE strictly below 6 in pEC50; TRUE otherwise

> print(dat)
                                    compound  assigned.category
 1  CC(C)OC(=O)Nc1cnc2nc(-c3cc(Nc4ncccc4C(F)(F)F)ccc3F)cn2c1 [Compound 485]              FALSE
 2  Cc1nc(C)c(C(=O)Nc2ccc(F)c(-c3cn4cc(-c5ccc(F)cn5)cnc4n3)c2)o1 [Compound 431]               TRUE
 3  Cc1cccnc1-c1cnc2nc(-c3cc(N)ccc3F)cn2c1 [Compound 594]              FALSE
 4  COCCNc1cnc2nc(-c3cc(NC(=O)N4CCCC4)ccc3Cl)cn2c1 [Compound 496]              FALSE
 5  Cc1nc(C)c(C(=O)Nc2ccc(F)c(-c3cn4cc(-c5ccnn5C(C)C)cnc4n3)c2)o1 [Compound 390]               TRUE
 6  CC(C)c1cnc2nc(-c3cc(NC(=O)N(C)C)ccc3F)cn2c1 [Compound 417]               TRUE
 7  CC(C)c1cnc2nc(-c3cc(NC(=O)N4CC(F)(F)C4)ccc3F)cn2c1 [Compound 416]               TRUE
 8  Cc1cnc(F)c(-c2cnc3nc(-c4cc(NC(=O)c5oc(C)nc5C)ccc4F)cn3c2)c1 [Compound 439]               TRUE
 9  CCCC(=O)OCN(C(=O)OC(C)C)c1cnc2nc(-c3cc(NC(=O)c4oc(C)nc4C)ccc3F)cn2c1 [Compound 556]               TRUE
10  Cc1nc(C)c(C(=O)Nc2ccc(F)c(-c3cn4cc(-c5ncc(F)cc5F)cnc4n3)c2)o1 [Compound 447]               TRUE
11  Cc1nc(C)c(C(=O)Nc2ccc(F)c(-c3cn4cc(N5CCC[C@@H]5C(F)(F)F)cnc4n3)c2)o1 [Compound 492]               TRUE
12  C=Cc1cnc2nc(-c3cc(NC(=O)c4oc(C)nc4C)ccc3F)cn2c1 [Compound 581]               TRUE
13  CNCCc1ccc(-c2cnc3nc(-c4cc(NC(=O)c5oc(C)nc5C)ccc4F)cn3c2)cc1 [Compound 451]              FALSE
14  Cc1nc(C)c(C(=O)Nc2ccc(F)c(-c3cn4cc(NCc5c[nH]cn5)cnc4n3)c2)o1 [Compound 480]              FALSE
